B1: HEEH_KT_rd6_0007 (parent)
chain: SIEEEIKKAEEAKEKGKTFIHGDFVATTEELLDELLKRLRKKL

variants of: B1; assay: folding stability dG (cDNA display proteolysis); higher = more stable; details: PBS, room temperature
folding stability dG below 0.9 kcal/mol gives Criterion not met; folding stability dG at or above it gives Criterion met.

Below are worked cases with known answers.
QUERY: hey, is folding stability dG for this one >= 0.9 kcal/mol? "K42N"
RESULT: Criterion not met

QUERY: Is folding stability dG at least 0.9 kcal/mol? Consider "E3S"
RESULT: Criterion met

QUERY: Record "K37Y" ; criterion: folding stability dG no lower than 0.9 kcal/mol. Met?
RESULT: Criterion met

QUERY: Does the reported folding stability dG for "K7E" fall at or above the 0.9 kcal/mol mark?
RESULT: Criterion met

QUERY: Item "L31A" with folding stability dG of 0.9 kcal/mol or above?
RESULT: Criterion met

Turning now to a further record.
QUERY: For this variant, is measured folding stability dG 0.9 kcal/mol or higher? "K8P"
RESULT: Criterion not met
